test system: Aspergillus flavus; assay: Antifungal activity against Aspergillus flavus assessed as inhibition of fungal growth incubated for 72 hrs by agar dilution method; assay type: functional
This listing pairs compounds with measured MIC.
Expressed in µg/mL, but write only the number.

// worked examples, MIC included
COc1ccc(-c2csc(NC(=S)N[C@@H]3O[C@H](COC(C)=O)[C@@H](OC(C)=O)[C@H](OC(C)=O)[C@H]3OC(C)=O)n2)cc1 ... 6.25
CC(=O)OC[C@H]1O[C@@H](NC(=S)Nc2nc(-c3ccccc3)cs2)[C@H](OC(C)=O)[C@@H](OC(C)=O)[C@@H]1OC(C)=O ... 50
CC(=O)OC[C@H]1O[C@@H](NC(=S)Nc2nc(-c3ccc(Br)cc3)cs2)[C@H](OC(C)=O)[C@@H](OC(C)=O)[C@@H]1OC(C)=O ... 3.12
CC(=O)OC[C@H]1O[C@@H](NC(=S)Nc2nc(-c3ccc(Cl)cc3)cs2)[C@H](OC(C)=O)[C@@H](OC(C)=O)[C@@H]1OC(C)=O ... 25
CC(=O)OC[C@H]1O[C@@H](NC(=S)Nc2nc(-c3cccc([N+](=O)[O-])c3)cs2)[C@H](OC(C)=O)[C@@H](OC(C)=O)[C@@H]1OC(C)=O ... 0.78

Q. Report MIC for OC(Cn1cncn1)(Cn1cncn1)c1ccc(F)cc1F tested on Aspergillus flavus.
A. 0.78

Q. Provide value of MIC for this record tested with Aspergillus flavus: CC(=O)OC[C@H]1O[C@@H](NC(=S)Nc2nc(-c3ccc(C)cc3)cs2)[C@H](OC(C)=O)[C@@H](OC(C)=O)[C@@H]1OC(C)=O
A. 12.5

* * *

test system: Saccharomyces cerevisiae; experiment: Antifungal activity against Saccharomyces cerevisiae assessed as inhibition of fungal growth incubated for 72 hrs by agar dilution method; type: functional
Measurement kind: MIC (µg/mL)
Provide the reading as a plain figure in µg/mL.

COc1ccc(-c2csc(NC(=S)N[C@@H]3O[C@H](COC(C)=O)[C@@H](OC(C)=O)[C@H](OC(C)=O)[C@H]3OC(C)=O)n2)cc1[N+](=O)[O-] ... 200
CC(=O)OC[C@H]1O[C@@H](NC(=S)Nc2nc(-c3cccc([N+](=O)[O-])c3)cs2)[C@H](OC(C)=O)[C@@H](OC(C)=O)[C@@H]1OC(C)=O ... 6.25
COc1ccc(-c2csc(NC(=S)N[C@@H]3O[C@H](COC(C)=O)[C@@H](OC(C)=O)[C@H](OC(C)=O)[C@H]3OC(C)=O)n2)cc1 ... 12.5
CC(=O)OC[C@H]1O[C@@H](NC(=S)Nc2nc(-c3ccc(Cl)cc3)cs2)[C@H](OC(C)=O)[C@@H](OC(C)=O)[C@@H]1OC(C)=O ... 3.12
CC(=O)OC[C@H]1O[C@@H](NC(=S)Nc2nc(-c3ccc(Br)cc3)cs2)[C@H](OC(C)=O)[C@@H](OC(C)=O)[C@@H]1OC(C)=O ... 25

Q. Which MIC value belongs to OC(Cn1cncn1)(Cn1cncn1)c1ccc(F)cc1F [FLUCONAZOLE] ?
A. 0.78

Q. Record request: MIC value, item CC(=O)OC[C@H]1O[C@@H](NC(=S)Nc2nc(-c3ccccc3)cs2)[C@H](OC(C)=O)[C@@H](OC(C)=O)[C@@H]1OC(C)=O
A. 1.56

Reference for the values: ChEMBL document CHEMBL5329146
